Data provenance: patent US10124009B2

# ASSAY_COMMENT: IV and oral pharmacokinetics in male Sprague-Dawley rats
# Type: in vivo, rat
# CONDITION_CONTEXT: male, Sprague-Dawley; PO Dose (5 mg/kg), rat plasma
Field: AUC(0-t). Provide a value for each of the compounds that follow.
In your response, put the unit directly after the numeric value.

Worked examples, 3 compounds total:
- COMPOUND: "Cc1sc2c(c1C)C(c1ccc(Cl)cc1)=N[C@@H](CC(=O)OCCCO)c1nnc(C)n1-2"
  AUC(0-t): "813 ng·h/mL"
- COMPOUND: "Cc1sc2c(c1C)C(c1ccc(Cl)cc1)=N[C@@H](CC(=O)OC1CCC(O)CC1)c1nnc(C)n1-2 (stereo partly shown)"
  AUC(0-t): "2360 ng·h/mL"
- COMPOUND: "Cc1sc2c(c1C)C(c1ccc(Cl)cc1)=N[C@@H](CC(=O)OCCCCCCO)c1nnc(C)n1-2"
  AUC(0-t): "12.1 ng·h/mL"

Recorded result, Cc1sc2c(c1C)C(c1ccc(Cl)cc1)=N[C@@H](CC(=O)OCC(C)O)c1nnc(C)n1-2 (stereo partly shown) , AUC(0-t): 2720 ng·h/mL

---

# Tested on: RIN-m
# ASSAY_COMMENT: Cell Titer-Glo rat insulinoma cell assay, RIN-m
# Format: cell-based
# CONDITION_CONTEXT: cell proliferation, 168-192 h culture
MEASURE_NAME: pIC50
Numbers only, as −log10 of the molar value.

- COMPOUND: "Cc1sc2c(c1C)C(c1ccc(Cl)cc1)=N[C@@H](CC(=O)OCC(C)O)c1nnc(C)n1-2 (some centres unmarked) [Compound 2]"
  TEST_VALUE: 7.38

Proceeding to the next compound to report its pIC50.
Recorded result, Cc1sc2c(c1C)C(c1ccc(Cl)cc1)=N[C@@H](CC(=O)OC1CCC(O)CC1)c1nnc(C)n1-2 (some centres unmarked) [Compound 1] , pIC50: 7.90

---

# ASSAY_COMMENT: Caco-2 permeability assay
# CONDITION_CONTEXT: human, Caco-2, Mean Papp, A-B, Assay Conc. 10 μM; 2 hours
Field: Papp A→B at 2 h, 10 μM. Provide a value for each of the compounds that follow.
In your response, put the unit directly after the numeric value.

Worked examples, 2 compounds total:
- COMPOUND: "Cc1sc2c(c1C)C(c1ccc(Cl)cc1)=N[C@@H](CC(=O)OCC(C)O)c1nnc(C)n1-2 (stereo partly drawn) [Compound 2]"
  MEASURE_NAME: "Papp A→B at 2 h, 10 μM"
  TEST_VALUE: "30.6 ×10⁻⁶ cm/s"
- COMPOUND: "Cc1sc2c(c1C)C(c1ccc(Cl)cc1)=N[C@@H](CC(=O)OCCO)c1nnc(C)n1-2 [Compound 3]"
  MEASURE_NAME: "Papp A→B at 2 h, 10 μM"
  TEST_VALUE: "29.8 ×10⁻⁶ cm/s"

Recorded result, Cc1sc2c(c1C)C(c1ccc(Cl)cc1)=N[C@@H](CC(=O)OC1CCC(O)CC1)c1nnc(C)n1-2 (stereo partly drawn) [Compound 1] , Papp A→B at 2 h, 10 μM: 30.7 ×10⁻⁶ cm/s
